target: CDK4 (Homo sapiens, UniProt P11802); construct: endogenous in cells; experiment: CDK4 degradation (DC50, Dmax); assay type: cell-based
Sequence (P11802 whole entry): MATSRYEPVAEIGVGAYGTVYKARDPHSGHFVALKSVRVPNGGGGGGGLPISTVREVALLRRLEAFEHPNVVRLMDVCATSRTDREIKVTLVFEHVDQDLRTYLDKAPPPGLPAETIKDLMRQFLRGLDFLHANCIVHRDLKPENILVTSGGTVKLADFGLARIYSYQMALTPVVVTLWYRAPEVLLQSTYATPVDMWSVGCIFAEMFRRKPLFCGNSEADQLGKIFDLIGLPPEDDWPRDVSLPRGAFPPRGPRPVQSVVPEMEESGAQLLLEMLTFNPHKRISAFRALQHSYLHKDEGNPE
assayReadout: Dmax

Solved cases (4 shown):
molecule	targetEntity	Dmax
CN(C)C(=O)c1cc2cnc(Nc3ccc(N4CCN(CCCNc5ccc6c(c5)C(=O)N(C5CCC(=O)NC5=O)C6=O)CC4)cn3)nc2n1C1CCCC1 (centres unmarked)	CDK4 (Homo sapiens, UniProt P11802)	> 80%
CC(=O)c1c(C)c2cnc(Nc3ccc(N4CCN(C(=O)N5CCC(CC6CCN(c7ccc8c(c7)CN(C7CCC(=O)NC7=O)C8=O)CC6)CC5)CC4)cn3)nc2n(C2CCCC2)c1=O (centres unmarked)	CDK4 (Homo sapiens, UniProt P11802)	> 50%
CC(=O)c1c(C)c2cnc(Nc3ccc(N4CCN(C(=O)C5CCN(c6ccc7c(c6)CN(C6CCC(=O)NC6=O)C7=O)CC5)CC4)cn3)nc2n(C2CCCC2)c1=O (centres unmarked)	CDK4 (Homo sapiens, UniProt P11802)	> 60%
CC(=O)c1c(C)c2cnc(Nc3ccc(N4CCN(CC5CN(c6ccc(C(=O)NC7CCC(=O)NC7=O)cc6)C5)CC4)cn3)nc2n(C2CCCC2)c1=O (centres unmarked)	CDK4 (Homo sapiens, UniProt P11802)	> 80%

Now, please, on to the next molecule.
Exam item: Recorded Dmax of CC(=O)c1c(C)c2cnc(Nc3ccc(N4CCN(C(=O)N5CCC(N6CCC(c7ccc8c(c7)C(=O)N(C7CCC(=O)NC7=O)C8=O)CC6)CC5)CC4)cn3)nc2n(C2CCCC2)c1=O (centres unmarked) , please.
Marked response: > 60%

----------
For each record, write down the corresponding DC50.
target: CDK4 (Homo sapiens); construct: endogenous in cells; experiment: CDK4 degradation (DC50, Dmax); format: cell-based

Solved cases (4 shown):
compound	DC50
Cc1nc2c(F)cc(-c3nc(Nc4ccc(CC5CCN(C(=O)C6CCN(c7ccc8c(c7)CN(C7CCC(=O)NC7=O)C8=O)CC6)CC5)cn4)ncc3F)cc2n1C(C)C (centres unmarked)	50 to 200 nM
CC(=O)c1c(C)c2cnc(Nc3ccc(N4CCN(C5CCN(C(=O)N6CCC(CN7CCN(c8ccc9c(c8)C(=O)N(C8CCC(=O)NC8=O)C9=O)CC7)CC6)CC5)CC4)cn3)nc2n(C2CCCC2)c1=O (centres unmarked)	50 to 200 nM
Cc1nc2c(F)cc(-c3nc(Nc4ccc(CN5CCN(C6CCN(c7ccc(NC8CCC(=O)NC8=O)cc7)CC6)CC5)cn4)ncc3F)cc2n1C(C)C (centres unmarked)	50 to 200 nM
CC(=O)c1c(C)c2cnc(Nc3ccc(N4CCN(C(=O)N5CCC(C6CCN(c7ccc8c(c7)C(=O)N(C7CCC(=O)NC7=O)C8=O)CC6)CC5)CC4)cn3)nc2n(C2CCCC2)c1=O (centres unmarked)	> 200 nM

Now, please, on to the next compound.
Exam item: Recorded DC50 of CC(=O)c1c(C)c2cnc(Nc3ccc(N4CCN(CCCNc5ccc6c(c5)C(=O)N(C5CCC(=O)NC5=O)C6=O)CC4)cn3)nc2n(C2CCCC2)c1=O (centres unmarked) , please.
Marked response: < 50 nM

----------
target: CDK6 (Homo sapiens, UniProt Q00534); construct: endogenous in cells; assay: CDK6 degradation (DC50, Dmax); format: cell-based
Sequence (Q00534 whole entry): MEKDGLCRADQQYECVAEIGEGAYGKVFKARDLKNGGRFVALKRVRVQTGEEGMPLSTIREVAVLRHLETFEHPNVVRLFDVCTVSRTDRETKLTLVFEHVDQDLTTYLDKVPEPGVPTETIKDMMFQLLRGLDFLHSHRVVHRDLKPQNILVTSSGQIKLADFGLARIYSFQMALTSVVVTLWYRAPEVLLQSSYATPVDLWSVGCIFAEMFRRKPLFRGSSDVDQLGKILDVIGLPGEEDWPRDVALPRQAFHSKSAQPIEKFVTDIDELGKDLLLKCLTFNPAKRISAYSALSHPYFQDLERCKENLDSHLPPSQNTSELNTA
assayReadout: DC50

Solved cases (5 shown):
molecule	DC50
CC(=O)c1c(C)c2cnc(Nc3ccc(N4CCN(CCN5CCN(c6ccc7c(c6)CN(C6CCC(=O)NC6=O)C7=O)CC5)CC4)cn3)nc2n(C2CCCC2)c1=O (stereo not drawn)	50 to 200 nM
Cc1nc2c(F)cc(-c3nc(Nc4ccc(CN5CCN(CC6CCN(c7ccc(NC8CCC(=O)NC8=O)cc7)CC6)CC5)cn4)ncc3F)cc2n1C(C)C (stereo not drawn)	50 to 200 nM
Cc1nc2c(F)cc(-c3nc(Nc4ccc(CN5CCN(c6cccc7c6C(=O)N(C6CCC(=O)NC6=O)C7=O)CC5)cn4)ncc3F)cc2n1C(C)C (stereo not drawn)	50 to 200 nM
Cc1nc2c(F)cc(-c3nc(Nc4ccc(CC5CCN(CC6CN(c7ccc8c(c7)CN(C7CCC(=O)NC7=O)C8=O)C6)CC5)cn4)ncc3F)cc2n1C(C)C (stereo not drawn)	< 50 nM
Cc1nc2c(F)cc(-c3nc(Nc4ccc(CC5CCN(C(=O)C6CN(c7ccc8c(c7)CN(C7CCC(=O)NC7=O)C8=O)C6)CC5)cn4)ncc3F)cc2n1C(C)C (stereo not drawn)	50 to 200 nM

Now, please, on to the next molecule.
Exam item: Recorded DC50 of CC(=O)c1c(C)c2cnc(Nc3ccc(N4CCN(CCN(C)c5ccc6c(c5)C(=O)N(C5CCC(=O)NC5=O)C6=O)CC4)cn3)nc2n(C2CCCC2)c1=O (stereo not drawn) , please.
Marked response: 50 to 200 nM
